Let's look at some Ki data for 5-hydroxytryptamine receptor 1A (Rattus norvegicus) that I collected from the literature.
Class membership depends on Ki alone; the intervals are 1: < 4 nM; 2: ≥ 4 nM and < 100 nM; 3: ≥ 100 nM

Solved cases below.
INSERT INTO assay_data (compound, qualitativelabel) VALUES
  ('Cc1ccc(S(=O)(=O)N2CCC(CN3CCC(c4noc5cc(F)ccc45)CC3)CC2)cc1', 3),
  ('CCCNC(=O)c1ccccc1N1CCN(CCCCN2CC(=O)N3CCCC3C2=O)CC1.Cl (configuration not stated)', 3);

Which category does the recorded Ki put `O=c1c2ccccc2nnn1OCCN1CCN(c2cccc3ccccc23)CC1` in?
3

Which category does the recorded Ki put `O=C(c1ccc(Cl)c(Cl)c1)N1CCC(CNCc2cccc(-c3cccs3)n2)CC1` in?
1

Which category does the recorded Ki put CCC1(CCCCN2CCN(c3cccc(Cl)c3)CC2)C(=O)Nc2c1cc(Cl)c(F)c2Cl (configuration not stated) in?
3

* * *

Let's look at some pKi data for 5-hydroxytryptamine receptor 1A (Rattus norvegicus, UniProt P19327) that I collected from the literature.
The meaning of pKi here: minus log10 of the concentration in molar units.

Example entries begin here.
INSERT INTO assay_data (itemsmiles, observedresult) VALUES
  ('COc1ccccc1N1CCN(CCNC(=O)c2ccsc2)CC1', 8.17),
  ('CC(=O)Nc1ccc2[nH]cc(C3=CCCN(C)C3)c2c1', 7.80),
  ('COc1ccc(-c2c3n(c(=O)n(CCCCN4CCC(c5c[nH]c6ccc(OC)cc56)CC4)c2=O)CCCC3)cc1', 7.98);

Tell me its pKi on 5-hydroxytryptamine receptor 1A (Rattus norvegicus, UniProt P19327): `O=c1c2ccccc2nnn1CCCN1CCN(c2cccc3ccccc23)CC1`
8.11

Tell me its pKi on 5-hydroxytryptamine receptor 1A (Rattus norvegicus, UniProt P19327): `O=c1c(-c2ccc(F)cc2)c2ccccn2c(=O)n1CCCCN1CCC(c2c[nH]c3ccc(F)cc23)CC1`
7.89

* * *

- testedSystem: 5-hydroxytryptamine receptor 1A (Rattus norvegicus, UniProt P19327)
- Sequence (P19327 whole entry): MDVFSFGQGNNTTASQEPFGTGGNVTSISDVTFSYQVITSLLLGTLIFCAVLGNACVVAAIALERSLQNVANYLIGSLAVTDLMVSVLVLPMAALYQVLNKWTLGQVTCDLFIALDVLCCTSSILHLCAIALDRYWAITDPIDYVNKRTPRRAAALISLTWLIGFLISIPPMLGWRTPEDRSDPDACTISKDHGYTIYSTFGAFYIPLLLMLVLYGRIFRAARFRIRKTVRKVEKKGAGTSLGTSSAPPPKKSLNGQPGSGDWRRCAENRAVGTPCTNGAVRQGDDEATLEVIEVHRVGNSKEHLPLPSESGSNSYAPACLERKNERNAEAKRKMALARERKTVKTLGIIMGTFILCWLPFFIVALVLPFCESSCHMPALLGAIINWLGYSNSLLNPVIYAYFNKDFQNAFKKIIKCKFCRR
Let's look at some pKi data for 5-hydroxytryptamine receptor 1A (Rattus norvegicus, UniProt P19327) that I collected from the literature.
The meaning of pKi here: minus log10 of the concentration in molar units.

Example entries begin here.
INSERT INTO results (itemsmiles, observedresult) VALUES
  ('O=C(N[C@H]1CC(=O)N(CCN2CCN(c3cccc(Cl)c3)CC2)C1=O)c1ccccc1', 5.00),
  ('O=c1oc2cc(OCCCCN3CCC(c4nc5ccccc5s4)CC3)ccc2c2c1CCC2', 5.80),
  ('COc1ccccc1N1CCN(CCNC(=O)c2cccn2C)CC1', 8.92);

Give the reported pKi for this compound. `Cc1cccc(S(=O)(=O)NCCCCN=C(N)N2CCC(c3ccccc3)CC2)c1`
4.92

* * *

Let's look at some pKi data for 5-hydroxytryptamine receptor 1A (Rattus norvegicus) that I collected from the literature.
pKi: −log10 of the molar value.

Example entries begin here.
INSERT INTO results (itemsmiles, measurementlabel, observedresult) VALUES
  ('O=C(NCCN1CCN(Cc2ccc3c(c2)OCO3)CC1)c1ccccn1', 'pKi', '< 5.00'),
  ('Cc1ccc2c3c(c(=O)oc2c1)CN(Cc1ccccc1)CC3', 'pKi', '< 6.15');

Alright, here's another compound for you.
Tell me its pKi on 5-hydroxytryptamine receptor 1A (Rattus norvegicus): `CCOc1ccccc1N1CCN(CCn2nc(-c3ccc(C)cc3)c3ccccc3c2=O)CC1`
6.02

* * *

- testedSystem: UniProt:P19327
- Sequence (P19327 whole entry): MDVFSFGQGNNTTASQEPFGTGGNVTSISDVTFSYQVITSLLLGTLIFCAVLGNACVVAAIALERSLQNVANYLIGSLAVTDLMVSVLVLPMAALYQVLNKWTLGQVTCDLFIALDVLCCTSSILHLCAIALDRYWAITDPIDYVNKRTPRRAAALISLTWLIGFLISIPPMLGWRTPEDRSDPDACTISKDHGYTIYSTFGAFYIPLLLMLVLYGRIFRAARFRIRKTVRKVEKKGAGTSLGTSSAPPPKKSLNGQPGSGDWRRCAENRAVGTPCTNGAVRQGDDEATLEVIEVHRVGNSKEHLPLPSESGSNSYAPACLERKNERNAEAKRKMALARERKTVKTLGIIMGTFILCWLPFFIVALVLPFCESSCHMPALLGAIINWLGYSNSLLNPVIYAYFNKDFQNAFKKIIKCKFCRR
Let's look at some pKi data for UniProt:P19327 that I collected from the literature.
The meaning of pKi here: minus log10 of the concentration in molar units.

Give the reported pKi for this molecule. `CN1CCc2ccc(OCCCCN3CCC(c4noc5cc(F)ccc45)CC3)cc2C1=O`
7.51

Give the reported pKi for this molecule. `COc1ccccc1N1CCN(CCNC(=O)c2cccnc2)CC1`
6.44

Give the reported pKi for this molecule. `COc1ccccc1N1CCN(CCCCCCCn2ncc(Cl)c(N3CCN(C(=O)c4ccco4)CC3)c2=O)CC1`
9.38

Give the reported pKi for this molecule. `O=C1CCOc2c(OCCNCCCCc3ccccc3)cc(F)cc21`
7.38

Give the reported pKi for this molecule. O=C1C2CCCCN2C(=O)N1CN1CCN(c2cccc(C(F)(F)F)c2)CC1 (stereo not given)
7.10

Give the reported pKi for this molecule. `COc1ccccc1N1CCN(CCCCNC(=O)C23C[C@H]4C[C@@H](C2)C[C@@H](C3)C4)CC1`
9.40

Give the reported pKi for this molecule. `COc1ccccc1N1CCN(CCCCN2C(=O)C[C@H](NC(C)=O)C2=O)CC1`
7.16

Give the reported pKi for this molecule. `O=C1CCc2cc(CCCCCN3CCC(c4noc5cc(F)ccc45)CC3)cc3c2N1CC3`
7.27

Give the reported pKi for this molecule. `CCCCOc1cccc(CNCC2CCN(C(=O)c3ccc(Cl)c(Cl)c3)CC2)n1`
7.73

Give the reported pKi for this molecule. `O=C1/C(=C/c2ccc(Cl)cc2)c2ccccc2N1CCCN1CCN(c2cccc(Cl)c2)CC1`
5.79

* * *

Let's look at some Ki data for 5-hydroxytryptamine receptor 1A (Rattus norvegicus) that I collected from the literature.
Give the value, in units of nM, as a plain number.

INSERT INTO assay_data (compound, observedresult) VALUES
  ('O=c1oc2cc(OCCCCN3CCN(c4ccccc4)CC3)ccc2c2c1CCC2', 56),
  ('Cc1ccc(CNCC2(F)CCN(C(=O)c3ccc(F)c(Cl)c3)CC2)nn1', 5.62),
  ('O=c1c2cnc3ccccc3c2ncn1CCCN1CCN(c2cccc(Cl)c2)CC1', 80),
  ('O=c1[nH]c2ccccc2n1CCCCCN1CCN(c2cccc(Cl)c2)CC1', 66),
  ('Cl.O=C1C2CCCN2C(=O)N1CCCN1CCN(c2cccc(Br)c2)CC1 (stereo not given)', 33),
  ('C1=C(c2cncc(CNCCOc3cccc4c3OC3(CC3)C4)c2)CCC1', 3.63),
  ('O=C1C2CCCN2C(=O)N1CCCN1CCN(c2cccc(Br)c2)CC1 (stereo not given)', 34),
  ('COc1ccccc1N1CCN(Cc2ccccc2CN2C(=O)CCC2=O)CC1', 415);

Tell me its Ki on 5-hydroxytryptamine receptor 1A (Rattus norvegicus): `O=C(c1ccccc1)N1CCC(CNCc2cccc(-n3cccn3)n2)CC1`
33.1

Tell me its Ki on 5-hydroxytryptamine receptor 1A (Rattus norvegicus): `CCOc1ccccc1N1CCN(CCNC(=O)Cn2nc(-n3ccnc3)ccc2=O)CC1`
1150

Tell me its Ki on 5-hydroxytryptamine receptor 1A (Rattus norvegicus): `COc1ccccc1N1CCN(CCCn2c(C)cn3c4c(=O)n(C)c(=O)n(C)c4nc23)CC1`
16.8

Tell me its Ki on 5-hydroxytryptamine receptor 1A (Rattus norvegicus): `CCCc1cc2c(=O)n(N)c(SCCCN3CCN(c4ccccc4OC)CC3)nc2s1`
1.4

Tell me its Ki on 5-hydroxytryptamine receptor 1A (Rattus norvegicus): `Cn1c(=O)c2c(nc3n(CCCN4CCN(c5ccccc5)CC4)c(=O)ccn23)n(C)c1=O`
25

Tell me its Ki on 5-hydroxytryptamine receptor 1A (Rattus norvegicus): `Cc1ccc2c(c1)ncc1c(=O)n(CCCN3CCN(c4ccccc4)CC3)cnc12`
125
